- Test method notes: Steady-state tryptophan fluorescence and CD with and without POPC liposomes
- Format: physicochemical
- Experimental setup: with POPC liposomes pH 8; 5 μM peptide, 1.25 mM lipids; excitation 280 nm; 25 °C
Recorded endpoint: maximum position of the fluorescence spectrum λmax, Pep-PC, pH8 (nm)
Give the number; nm is assumed, so skip it.

Ask: Requested field: maximum position of the fluorescence spectrum λmax, Pep-PC, pH8. Item: O=C(O)CC[C@@H]1NC(=O)[C@H](CS)NC(=O)[C@H](Cc2c[nH]c3ccccc23)NC(=O)[C@H](Cc2c[nH]c3ccccc23)NC(=O)[C@H](Cc2c[nH]c3ccccc23)NC(=O)[C@H](Cc2c[nH]c3ccccc23)NC(=O)[C@H](Cc2c[nH]c3ccccc23)NC(=O)[C@H](CCC(=O)O)NC(=O)[C@H](CCC(=O)O)NC(=O)[C@H](CCC(=O)O)NC1=O [c[E4W5C]]
Reply: 342.8
